Protein target, amino acids: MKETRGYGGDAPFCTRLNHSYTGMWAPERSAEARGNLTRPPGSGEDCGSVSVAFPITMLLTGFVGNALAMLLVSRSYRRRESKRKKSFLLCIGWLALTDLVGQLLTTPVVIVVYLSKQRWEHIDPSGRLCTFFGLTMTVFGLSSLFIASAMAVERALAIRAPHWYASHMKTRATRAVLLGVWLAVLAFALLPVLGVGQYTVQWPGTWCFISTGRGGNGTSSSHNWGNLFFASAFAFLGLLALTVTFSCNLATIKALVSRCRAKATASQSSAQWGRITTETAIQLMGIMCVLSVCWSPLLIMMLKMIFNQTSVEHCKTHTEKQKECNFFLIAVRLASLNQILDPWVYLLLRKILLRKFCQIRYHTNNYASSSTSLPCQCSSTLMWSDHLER
metric_name: IC50
The reply should read as a number followed by its unit.

Supply recorded IC50 for O=C(O)c1cc(-c2ccc(C3CCNCC3)cc2)c2ccc(-c3ccc(C(F)(F)F)cc3)cc2c1 [PPTN] here.
9.27 µM
